# key: entry, value: NanoBRET Fold Response
# tested_on: MTNR1A (Homo sapiens, UniProt P48039)
# Construct: purchased Promega (in-house HiBiT-GPCR construct library, NanoBRET)
# Sequence (P48039 whole entry): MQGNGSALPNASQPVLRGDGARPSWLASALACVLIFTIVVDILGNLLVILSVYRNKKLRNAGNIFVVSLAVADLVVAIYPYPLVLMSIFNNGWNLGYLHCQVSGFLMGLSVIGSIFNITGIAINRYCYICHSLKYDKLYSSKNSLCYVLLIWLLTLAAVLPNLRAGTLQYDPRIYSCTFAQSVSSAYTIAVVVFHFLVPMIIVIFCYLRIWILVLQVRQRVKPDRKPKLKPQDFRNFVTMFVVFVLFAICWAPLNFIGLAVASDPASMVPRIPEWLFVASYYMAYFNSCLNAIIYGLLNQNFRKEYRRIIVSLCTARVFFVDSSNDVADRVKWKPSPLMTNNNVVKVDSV
# assay_summary: NanoBRET screen HiBiT-MTNR1A in HEK293
# Type: binding
# condition_parameters: MTNR1A; tracer 1μM
Answer as a number with no unit attached.

compound: N#CN=C(NCCCOc1cccc(CN2CCCCC2)c1)NCCNC(=O)CCOCCOCCOCCOCCNC(=O)CCc1ccc2n1[B-](F)(F)[N+]1=C(c3ccc[nH]3)C=CC1=C2 [Aminopotentidine-2-NB590]
NanoBRET Fold Response: 1.00
--
compound: CCCn1c(=O)c2[nH]c(-c3ccc(OCC(=O)NCCNC(=O)CCOCCNC(=O)c4ccc(CNC(=O)CCc5ccc6n5[B-](F)(F)[N+]5=C(c7ccc[nH]7)C=CC5=C6)cc4)cc3)nc2n(CCC)c1=O [XAC-3-NB590]
NanoBRET Fold Response: 1.01
--
compound: Cc1nc2n(c(=O)c1CCN1CCC(c3noc4cc(F)ccc34)CC1)CCCC2OC(=O)NCCOCCOCCOCCOCCNC(=O)CCc1ccc2n1[B-](F)(F)[N+]1=C(c3ccc[nH]3)C=CC1=C2 (stereo not drawn) [Risperidone-2-NB590]
NanoBRET Fold Response: 0.93
--
compound: COc1ccccc1N1CCN(CCCCN2C(=O)c3ccc(CNC(=O)CCOCCOCCOCCOCCNC(=O)CCc4ccc5n4[B-](F)(F)[N+]4=C(c6ccc[nH]6)C=CC4=C5)cc3C2=O)CC1 [NAN-190-2-NB590]
NanoBRET Fold Response: 0.97
--
compound: CN(C)CCC=C1c2ccccc2CCc2ccc(C(=O)NCCNC(=O)CCOCCOCCOCCOCCNC(=O)CCc3ccc4n3[B-](F)(F)[N+]3=C(c5ccc[nH]5)C=CC3=C4)cc21 [Amitriptyline-b-2-NB590]
NanoBRET Fold Response: 0.98

Request: Please look up its NanoBRET Fold Response: Cc1cc2c(s1)Nc1ccccc1N=C2N1CCN(CCCNC(=O)CCOCCOCCOCCOCCNC(=O)CCc2ccc3n2[B-](F)(F)[N+]2=C(c4ccc[nH]4)C=CC2=C3)CC1 [Olanzapine-a-2-NB590]
Result: 1.07

Request: Please look up its NanoBRET Fold Response: CC(C)N(CC[C@H](c1ccccc1)c1cc(CCNC(=O)CCOCCOCCOCCOCCNC(=O)CCc2ccc3n2[B-](F)(F)[N+]2=C(c4ccc[nH]4)C=CC2=C3)ccc1O)C(C)C [Tolterodine-2-NB590]
Result: 0.79

Request: Please look up its NanoBRET Fold Response: O=C(CCc1ccc2n1[B-](F)(F)[N+]1=C(c3ccc[nH]3)C=CC1=C2)NCc1ccc(C(=O)NCCOCCC(=O)N[C@@H]2CC[C@@]3(O)[C@H]4Cc5ccc(O)c6c5[C@@]3(CCN4CC3CC3)[C@H]2O6)cc1 [Naltrexone-3-NB590]
Result: 1.18

Request: Please look up its NanoBRET Fold Response: O=C(CCc1ccc2n1[B-](F)(F)[N+]1=C(c3ccc[nH]3)C=CC1=C2)NCCOCCOCCNC(=O)OCCOCCN1CCN(C2=Nc3ccccc3Sc3ccccc32)CC1 [Quetiapine-a-2-NB590]
Result: 1.05

###

# tested_on: PTGER2 (Homo sapiens, UniProt P43116)
# Construct: purchased Promega (in-house HiBiT-GPCR construct library, NanoBRET)
# Sequence (P43116 whole entry): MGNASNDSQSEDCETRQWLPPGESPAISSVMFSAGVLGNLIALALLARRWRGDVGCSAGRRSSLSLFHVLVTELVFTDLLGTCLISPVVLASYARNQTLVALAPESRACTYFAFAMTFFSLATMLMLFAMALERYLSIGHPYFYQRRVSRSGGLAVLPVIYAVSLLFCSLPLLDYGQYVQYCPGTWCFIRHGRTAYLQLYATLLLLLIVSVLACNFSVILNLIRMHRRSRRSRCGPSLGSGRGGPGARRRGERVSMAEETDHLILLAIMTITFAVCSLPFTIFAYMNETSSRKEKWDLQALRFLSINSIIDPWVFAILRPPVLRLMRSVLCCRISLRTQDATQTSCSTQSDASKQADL
# assay_summary: NanoBRET screen HiBiT-PTGER2 in HEK293
# Type: binding
# condition_parameters: PTGER2; tracer 1μM
measured_attribute: NanoBRET Fold Response
Answer as a number with no unit attached.

See these solved cases before continuing.
smiles_notation: O=C(CCc1ccc2n1[B-](F)(F)[N+]1=C(c3ccc[nH]3)C=CC1=C2)NCCOCCOCCNC(=O)OCCOCCN1CCN(C2=Nc3ccccc3Sc3ccccc32)CC1
NanoBRET Fold Response: 1.05

smiles_notation: Cc1cc2c(s1)Nc1ccccc1N=C2N1CCN(CCCNC(=O)CCOCCOCCOCCOCCNC(=O)CCc2ccc3n2[B-](F)(F)[N+]2=C(c4ccc[nH]4)C=CC2=C3)CC1
NanoBRET Fold Response: 0.98

Attention now turns to another entry.
Request: Please look up its NanoBRET Fold Response: CC(C)N(CC[C@H](c1ccccc1)c1cc(CCNC(=O)CCOCCOCCOCCOCCNC(=O)CCc2ccc3n2[B-](F)(F)[N+]2=C(c4ccc[nH]4)C=CC2=C3)ccc1O)C(C)C
Result: 1.01
